Hey, just so you know, these numbers are from PubChem BioAssay (NCI).

System: PC-3 prostate
Protocol Details: NCI tumour cell line growth inhibition, 48 h
Recorded Metric: GI50

Worked cases, answers included:
N#Cc1nc2c(S(=O)(=O)c3ccc(Cl)cc3)c(N)n(CCCN3CCOCC3)c2nc1C#N	26.7 µM
CC1=C(CCC(C)NCc2ccc(OCCCN3CCCCC3)cc2)C(C)(C)CCC1 (stereo not given)	1.54 µM
COC(=O)c1cc2ccccc2c2c3c(ccc12)OCO3	67.4 µM
Cc1nn(-c2ccc([N+](=O)[O-])cc2)c2ncnc(N/N=C/c3ccccc3O)c12	0.587 µM

# evaluate next
Recorded GI50 for CN(C)C(=O)c1cnc2oc3ccc(O)cc3c2c1-c1ccccc1 with PC-3 prostate, please?
16.6 µM

---

Test system: A549 NSCLC
Protocol Details: NCI tumour cell line growth inhibition, 48 h
Recorded Metric: GI50

Worked cases, answers included:
Cc1ccc(C(=O)NC2CCC2)cc1-c1ccc(C(=O)NCC2CC2)cc1	> 25 µM
O1[As]2O[As]3O[As]1O[As](O2)O3	3.29 µM
C[C@]12CC[C@@H]3c4ccc(O)cc4CC[C@H]3[C@@H]1Cc1cnc(N)nc12	44 µM
CN(C)C(=O)c1cnc2oc3ccc(O)cc3c2c1-c1ccccc1	> 25 µM
COc1cccc(-c2cc3c4c(nc5ccccc53)C(=O)c3cccnc3-c4n2)c1	1.44 µM

# evaluate next
Given the molecule CCN1C(=O)N(CC)C2C1NN=c1s/c(=C\c3ccccn3)c(=O)n12 (stereo unspecified) , what is its reported GI50?
2.15 µM

---

Test system: NCI-H460 lung
Protocol Details: NCI tumour cell line growth inhibition, 48 h
Recorded Metric: TGI (µM)
Enter your answer as a number in µM; do not include the unit.

Given the compound Cc1ccc(-c2nc3nc(-c4ccccc4)nc(N4CCNCC4)c3o2)cc1 , what is its reported TGI?
0.503

---

System: SW-620 colon
Protocol Details: NCI tumour cell line growth inhibition, 48 h
Recorded Metric: TGI

Worked cases, answers included:
O=C(O)C1CCCCN1c1ccccc1[N+](=O)[O-] (centres undefined)	> 100 µM
CN1CC2CN(Cc3ccccc3)CCN2c2cccnc21 (centres undefined)	> 100 µM
Cc1ccc(C(=O)NC2CCC2)cc1-c1ccc(C(=O)NCC2CC2)cc1	> 25 µM
CNc1nc(C(N)=O)c(N)s1	> 100 µM
Cc1[nH]c(=O)nc(Nc2ccc(Cl)cc2)c1C(=O)N1CCN(CCO)CC1	> 100 µM

Given the molecule CCN(CC)c1oc(N(CC)CC)c(C(=O)Nc2ccccn2)c(=O)c1C(C)=O , what is its reported TGI?
> 100 µM

Given the molecule COc1cccc(C2c3cc4c(cc3OC(Nc3ccccc3)C2C)OCO4)c1OC (centres undefined) , what is its reported TGI?
> 100 µM

Given the molecule CNC(=O)OCc1c2ccncc2c(C)c2c1[nH]c1ccc(OC)cc12 , what is its reported TGI?
> 100 µM

Given the molecule O=C(c1ccccc1)N1C(=S)N(c2ccccn2)C(=Nc2ccccc2)C1=Nc1ccccc1 , what is its reported TGI?
> 65.6 µM

---

System: UACC-257 melanoma
Protocol Details: NCI tumour cell line growth inhibition, 48 h
Recorded Metric: GI50

Worked cases, answers included:
C#CCNCCN1C(=O)c2ccc3c4c(ccc(c24)C1=O)C(=O)N(CCNCC#C)C3=O	3.08 µM
Cc1nn(-c2ccc([N+](=O)[O-])cc2)c2ncnc(N/N=C/c3ccccc3O)c12	1.47 µM
CCC[CH2][Sn]1([CH2]CCC)[O]C2C(CO)OC(n3ccc(N)nc3=O)C2[O]1 (configuration not stated)	1.28 µM
O=C(Nc1ccc(Oc2cccc(F)c2)c(Cl)c1)c1cnccn1	4.53 µM
O=C1c2ccc3c4c(ccc(c24)C(=O)N1CCCNCc1ccccc1Cl)C(=O)N(CCCNCc1ccccc1Cl)C3=O	0.125 µM
N#Cc1nc2c(S(=O)(=O)c3ccc(Cl)cc3)c(N)n(CCCN3CCOCC3)c2nc1C#N	5.91 µM

Given the compound CCN1C(=O)N(CC)C2C1NN=c1s/c(=C\c3ccccn3)c(=O)n12 (configuration not stated) , what is its reported GI50?
> 100 µM
